Origin of measurements: patent US7868026B2

Entries annotated with measured log10 IC50
target: CYP3A4 (Homo sapiens); assay: Determination of IC50 against CYP3A4 by measurement of inhibition of midazolam metabolism (human liver microsomes, 1-hydroxymidazolam by LC-MS/MS); assay type: biochemical; set-up: 0.1 mg/mL human liver microsomes; details: 2 μM midazolam, 0.1 mg/mL human liver microsomes
Values are log10 of IC50 in nM.

The cases that follow already have their log10 IC50 on record.
[[record]]
molecule = "CCC(C)NC(=O)c1ccccc1S(=O)(=O)Nc1cncc(C)c1 (stereo not shown)"
system_tested = "CYP3A4 (Homo sapiens)"
value = 1.49

[[record]]
molecule = "COc1cncc(NS(=O)(=O)c2ccc(F)cc2C(=O)N2CCCC(C)C2)c1 (stereo not shown)"
system_tested = "CYP3A4 (Homo sapiens)"
value = 2.08

[[record]]
molecule = "COCCN(C(=O)c1ccccc1S(=O)(=O)Nc1cnccc1OC)C(C)C"
system_tested = "CYP3A4 (Homo sapiens)"
value = 2.03


Given CC(C)(C)CNC(=O)c1ccccc1S(=O)(=O)Nc1cccnc1 , state its recorded log10 IC50.
1.86

Now try COCCN(C)C(=O)c1ccccc1S(=O)(=O)Nc1cnccc1C .
2.75

Now try Cc1cc(CNC(=O)c2ccccc2S(=O)(=O)Nc2cnccc2C)ccc1F .
0.95

Now try Cc1cncc(NS(=O)(=O)c2ccccc2C(=O)N(C)C(C)C)c1 .
1.49

Now try COc1cncc(NS(=O)(=O)c2ccc(OCCN3CCNCC3)cc2C(=O)NCc2ccc(F)cc2)c1 .
1.70

Now try CCCCCNC(=O)c1ccccc1S(=O)(=O)Nc1cncc(C)c1 .
1.40

Now try COc1cncc(NS(=O)(=O)c2ccccc2C(=O)NCc2ccc(Cl)c(F)c2)c1 .
0.90

Now try COc1cncc(NS(=O)(=O)c2ccccc2C(=O)NCc2ccccc2OC)c1 .
0.78

Now try COc1ccncc1NS(=O)(=O)c1ccccc1C(=O)NC(C)C1CC1 (stereo not shown) .
1.85

Now try COc1cncc(NS(=O)(=O)c2ccccc2C(=O)NCc2cccc(F)c2F)c1 .
0.85

Now try Cc1ccccc1CCNC(=O)c1ccccc1S(=O)(=O)Nc1cccnc1 .
1.20

Now try COc1cncc(NS(=O)(=O)c2ccc(F)cc2C(=O)NCCC(C)C)c1 .
1.48

Now try Cc1cccc(CCNC(=O)c2ccccc2S(=O)(=O)Nc2cccnc2)c1 .
1.38

Now try COc1cncc(NS(=O)(=O)c2ccccc2C(=O)N2CCC(c3ccccc3)CC2)c1 .
1.30

Now try COc1cncc(NS(=O)(=O)c2ccccc2C(=O)N(C)CCC(C)C)c1 .
1.36

Now try O=C(NCC1CCCC1)c1ccccc1S(=O)(=O)Nc1cccnc1 .
1.48

Now try Cc1cncc(NS(=O)(=O)c2ccccc2C(=O)NCc2cc(Cl)cc(Cl)c2)c1 .
0.90

Now try Cc1ccc(CNC(=O)c2ccccc2S(=O)(=O)Nc2cccnc2)cc1 .
1.48

Now try CCOc1cncc(NS(=O)(=O)c2ccccc2C(=O)N2CCOCC2)c1 .
2.54

----------
molecular target: CYP3A4 (Homo sapiens, UniProt P08684); assay: Determination of IC50 against CYP3A4 by measurement of inhibition of testosterone metabolism (human liver microsomes, 6-β-OH-testosterone by LC-MS/MS); type: biochemical; set-up: 0.1 mg/mL human liver microsomes; conditions: read-out: IC50 (Testo.)
Sequence (P08684 whole entry): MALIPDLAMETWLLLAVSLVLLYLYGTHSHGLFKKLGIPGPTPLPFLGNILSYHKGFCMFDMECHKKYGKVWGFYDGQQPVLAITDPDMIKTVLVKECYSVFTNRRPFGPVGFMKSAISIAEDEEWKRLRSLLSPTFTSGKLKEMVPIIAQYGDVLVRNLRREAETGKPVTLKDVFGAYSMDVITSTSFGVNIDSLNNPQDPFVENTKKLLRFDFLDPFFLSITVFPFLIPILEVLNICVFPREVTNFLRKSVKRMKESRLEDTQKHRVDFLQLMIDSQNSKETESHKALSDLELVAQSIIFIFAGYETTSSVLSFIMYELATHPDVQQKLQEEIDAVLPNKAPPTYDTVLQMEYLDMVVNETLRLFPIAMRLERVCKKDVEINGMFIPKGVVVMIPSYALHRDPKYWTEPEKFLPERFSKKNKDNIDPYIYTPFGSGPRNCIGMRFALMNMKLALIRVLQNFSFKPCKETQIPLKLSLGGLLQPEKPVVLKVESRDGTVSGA
Label scheme, based on IC50: zone 1 = under 40 nM, zone 2 = from 40 nM up to 100 nM, zone 3 = 100 nM and over

[[record]]
compound = "CCN(Cc1ccccc1)C(=O)c1ccccc1S(=O)(=O)Nc1cccnc1"
class_label = "zone 3"

[[record]]
compound = "CCC(C)CNC(=O)c1ccccc1S(=O)(=O)Nc1cncc(OC)c1 (stereo not shown)"
class_label = "zone 1"

[[record]]
compound = "COc1cncc(NS(=O)(=O)c2ccc(Cl)cc2C(=O)N2CCCC(C)C2)c1 (stereo not shown)"
class_label = "zone 2"

[[record]]
compound = "CCCN(CC1CC1)C(=O)c1ccccc1S(=O)(=O)N(C)c1cccnc1"
class_label = "zone 2"

[[record]]
compound = "COc1cncc(NS(=O)(=O)c2ccccc2C(=O)NCCc2ccccc2OC)c1"
class_label = "zone 1"

[[record]]
compound = "COc1cncc(NS(=O)(=O)c2ccc(Cl)cc2C(=O)N(C)C(C)C)c1"
class_label = "zone 3"

[[record]]
compound = "COc1cncc(NS(=O)(=O)c2ccccc2C(=O)NC2CC3CCC2C3)c1 (stereo not shown)"
class_label = "zone 2"

[[record]]
compound = "COCCN(C)C(=O)c1ccccc1S(=O)(=O)Nc1cnccc1OC"
class_label = "zone 3"

[[record]]
compound = "COc1cncc(NS(=O)(=O)c2ccccc2C(=O)N(C)Cc2ccccc2)c1"
class_label = "zone 1"

[[record]]
compound = "Cc1cncc(NS(=O)(=O)c2ccccc2C(=O)N(C)CCC(C)C)c1"
class_label = "zone 1"


Any idea which band COc1cncc(NS(=O)(=O)c2ccccc2C(=O)NCc2ccc(S(C)(=O)=O)cc2)c1 is in?
zone 3

Now try CCOc1ccncc1NS(=O)(=O)c1ccccc1C(=O)N(C)CCOC .
zone 3
